Hello, the source for this data is ChEMBL document CHEMBL3988442, in case you need it.

# test.target: Sialic acid-binding Ig-like lectin 9 (Homo sapiens) (UniProt Q9Y336)
# Sequence (Q9Y336 whole entry): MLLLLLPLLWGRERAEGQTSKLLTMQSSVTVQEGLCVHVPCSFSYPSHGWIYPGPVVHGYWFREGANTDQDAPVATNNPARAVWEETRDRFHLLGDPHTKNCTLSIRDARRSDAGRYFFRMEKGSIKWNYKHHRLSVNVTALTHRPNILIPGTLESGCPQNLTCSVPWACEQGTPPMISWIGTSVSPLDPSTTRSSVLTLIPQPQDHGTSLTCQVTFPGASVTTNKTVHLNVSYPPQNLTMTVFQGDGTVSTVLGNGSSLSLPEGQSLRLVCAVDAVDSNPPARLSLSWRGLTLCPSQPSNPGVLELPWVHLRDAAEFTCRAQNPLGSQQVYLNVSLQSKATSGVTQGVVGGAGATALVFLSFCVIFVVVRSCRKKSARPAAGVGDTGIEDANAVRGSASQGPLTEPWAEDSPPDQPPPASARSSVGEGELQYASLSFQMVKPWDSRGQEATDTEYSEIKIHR
# measurement.protocol: Hs-Siglec9 ALPHAscreen SOP 20170721
# Parameters: scale not given: direction of the effect not stated beside the values
# measurement.context: 10 µM
Below, each entry is listed with its recorded Percent Effect.
Note: unit % is implicit; provide only the numeric part.

Here is how some compounds turned out for Percent Effect.
- compound: "Cc1cccc(-c2ccc3nc(C4CCN(CC5CC5)CC4)nn3c2)c1"
  Percent Effect, %: 13.9
- compound: "CC(C)(C)OC(=O)CNC(=O)CCc1nnc(-c2ccsc2)o1"
  Percent Effect, %: 5.6
- compound: "Cc1cnc(N2CC3(CCN(C(=O)c4ccoc4)C3)C2)nc1"
  Percent Effect, %: 2.78
- compound: "CCc1nccn1C1CCCN(C(=O)c2cnn(C)c2C2CC2)C1 (configuration not stated)"
  Percent Effect, %: 1.6

Reported Percent Effect of CC(C)c1ncc2c(n1)CN(Cc1nc(-c3ccoc3)no1)CC2 : 5.18

Record summary for C[C@@H]1CN(C(=O)c2cnc(C3CC3)nc2)CC[C@@]1(O)C1CCOCC1 : reported Percent Effect = 21.6

The compound listed as COc1cccc(OC)c1CN1CCC2(CC(Nc3ccncn3)C2)C1 (configuration not stated) shows Percent Effect equal to 2.05

Notebook: CC1N(CC2CC2)C(=O)COC12CCN(Cc1nccs1)CC2 (configuration not stated) , Percent Effect read as 11.6
